# Target desc: T1, HCV bt-134-154 (Peptide 1, HCVc 134-154) (Hepatitis C virus (numbering per HCV-1), biotin (carboxy-terminal per; N-terminal per))
# T1 peptide: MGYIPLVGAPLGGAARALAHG
# Assay: EIA, captured mAb + biotin peptide
Experimental readout: Reactivity (OD 492 nm) (OD units)

* HCV 208B-281 (antibody, V domains shown) VH: QGQLQQSGAELVKPGASVKLSCKTSGFTFSSSYISWLKQRPGQSLEWIAWIYAGTGGTNYNQKFTDKAQLTVDTSSSTAYMQFSSLTTEDSAIYYCAISGTGFIYWGQGTLVTVSA VL: DVLMTQTPLSLPVSLGDQASISCRSSQSLVHNNGNTYLEWFLQKPGQSPKLLIYKVSNRFSGVPDRFSGSGSGTDFTLKISRVEAEDLGVYYCFQGSHVPFTFGSGTKLEIKR | 1.48
* HCV 208B-408 (antibody, V domains shown) VH: EVKLVESGGGLVQPGGSLRLSCASSGFTFTDYYMSWVRQPPGKALEWLGFIRNKAYGYTTEFSASVNGRFTISRDDSQSVPYLQMNTLRAEDSATYYCARVLYYDYGGFAYWGQGTLVTVST VL: DIQMTQSPASLSASVGETVTITCRASGNIHTYLAWYQQKQGKSPQLLVYNANTLADGVPSRFSGSGSGTQFSLKINSLQPDDFGSYYCQHFWSAPWTFGGGTQLEIKR | 0.81
* HCV 208A-983 (antibody, V domains shown) VH: QGQMQQSGAELVKPGASVKLSCKTSGFTFSSSYFSWLKQKPGQSLEWIAWIYAGTGNTIYNQKFTDKAQLTVDTASSTAFMQLSSLTIEDSAIYYCAISGTGFTYWGQGTLVTVSA VL: DVLMTQTPLSLPVNLGDQASISCRSSQSLLHSNGNTYLEWFLQKPGQSPKLLIYNVSNRFSGVPDRFSGSGSGTDFTLKISRVEAEDLGVYYCFQGSHVPFTFGSGTKLAIKR | 3.03
* HCV 208A-134 (antibody, V domains shown) VH: QGQMQQSGAELAKPGASVKLSCKTSGFTFSSSYISWLKQKPGQSLEWIAWIYAGTGNTNYNQKFTDKAQLTVDTSSSTAYMQLSSLTTEDSAIYYCAISGTGFTYWGQGTLVTVSA VL: EVLMTQSPLSLPVSLGDQASISCRSSQSLEHTNGNTYLEWFLQRPGQPPKLLIYKVSSRFSGVPDRFSGSGSGTDFTLKISRVEAEDLGVYYCFQGSHVPFTFGSGTKLAIKR | 2.06
* HCV 208A-605 (antibody, V domains shown) VH: EVQLQQSGPELEKPGASVKISCKTSGYTFTEYAIHWVKQSHGMSLEWIGGINPSNGNAIYNQIFKDKATLTVDRSSSTAYMGLRSLTFGDSGVYFCVRRQLDFFDYWGQGASLTVSS VL: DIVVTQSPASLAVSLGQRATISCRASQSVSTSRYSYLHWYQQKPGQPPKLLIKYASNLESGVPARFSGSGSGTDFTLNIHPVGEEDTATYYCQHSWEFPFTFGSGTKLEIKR | 0.22
